B1: FUT8 (parent)
chain: NWRYATGGWETVFRPVSETCTDRS

# Variants of: B1
# EXPERIMENTAL_PROTOCOL: protein stability index of a GFP-peptide fusion (GPS, HEK-293T) (PSI 1-6); higher = more stable;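 further: lentivirally expressed fusions sorted by FACS into six bins by GFP to DsRed ratio, PSI derived from sequencing read proportions per bin multiplied by bin number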
# PARTICULARS: c terminus: a fixed tail appended
Everything with protein stability index lower than 2 is NOT MET; everything else, including exactly 2, is MET.

CHAIN	GROUP_LABEL
NWRYATWGWETVFRPVSETCTDRS [G7W]	NOT MET
NWRYATGGWETVFRPVSETCTDRA [S24A]	NOT MET
NWRYATGTWETVFRPVSETCTDRS [G8T]	MET
NWRYATGGWETVFRPVSEKCTDRS [T19K]	NOT MET
NARYATGGWETVFRPVSETCTDRS [W2A]	MET
NWRYATGGWETVFYPVSETCTDRS [R14Y]	MET
NWRYATGGWETVFRPVSETCPDRS [T21P]	NOT MET
NWRYATGGWETVFRSVSETCTDRS [P15S]	MET
NWRYATGGWETVFRPVSETCTSRS [D22S]	MET
NWRYYTGGWETVFRPVSETCTDRS [A5Y]	MET
NWRYATGGWETVFRPVSETCGDRS [T21G]	NOT MET
NWRYATGGWETVLRPVSETCTDRS [F13L]	MET
